Assignment: determine reported IC50 for the given sequences.
- test target: HLA-A*02:02
- test method notes: IEDB peptide-MHC binding, cellular MHC/competitive/fluorescence; bounds were set here for any values at or beyond the usual limits of such assays
- condition notes: source organism: Vaccinia virus WR
Answer in µM, number only, no unit symbol.

For reference, reported IC50 for VAMLLTHGA stands at 7.16

Lookup result for YIWIKNLET ; measured IC50: 12.6

Looking up VIRNEVNDT , I found its IC50 recorded as 19.9

// recorded IC50 for SQAKKPEVRI : 10.7

Record summary for SVDAMIHKT : reported IC50 = 5.02

Per the record, EVLMSPCRM has IC50 of 6.83

Per the records, this sequence ( LAIKNYYRKT ) has IC50 equal to 36.8

Kindly note the recorded IC50 for SITPNNLNKI , which is 14.9

So, ETFPNVHEHI ? Its IC50 was 8.02

====

- test target: HLA-A*02:06
- test method notes: IEDB peptide-MHC binding, purified MHC/competitive/radioactivity; bounds were set here for any values at or beyond the usual limits of such assays
- condition notes: source organism: Vaccinia virus WR
I'd appreciate it if you could label each record using IC50 and these ranges: band 1 (below 40 nM), band 2 (40 nM to below 200 nM), band 3 (200 nM or more)

### Prompt Class? Entry: NTFVNFNSV
### Response band 1

### Prompt Lab note: sort ELAYYNSCM into the matching IC50 band.
### Response band 3

### Prompt Band for the recorded IC50 of FIISTLNKIL ?
### Response band 1

### Prompt Assign a category based on measured IC50 for IMTSTRTIIL and give only the class name.
### Response band 3

### Prompt Class? Entry: DLLNVTYNI
### Response band 3

### Prompt Field: class (IC50) — entry: RALKAYFTA
### Response band 1

### Prompt Each sequence maps to one class by IC50. Which class for SVIFYFISI ?
### Response band 1

### Prompt Category of TLLNETAKV :
### Response band 1

### Prompt Field: class (IC50) — entry: IVCSKTVKNV
### Response band 3

### Prompt Determine which band this sequence sits in: ALLSCIRNA
### Response band 2

### Prompt Form field 'band' for YLLFNHFSV
### Response band 1

### Prompt Please classify: LVKESMASL
### Response band 2

### Prompt Please indicate the class for LIYDDNIDSI based on its IC50.
### Response band 3

### Prompt The entry to classify is LLPLTSLVIT ; which class holds it?
### Response band 3

### Prompt Which IC50 band matches KLPTLFGRGV ?
### Response band 2

### Prompt # bin label for ITVGMLIYSM
### Response band 2

### Prompt Form: Item = CLTVPNITI ; Class = ?
### Response band 3

### Prompt Just checking, what class would you give ALCKVTVPT here?
### Response band 3

### Prompt Which bin should I file KVEKYLPEV under?
### Response band 2

### Prompt Bin? RIITILQDIV
### Response band 2

====

- test target: HLA-A*02:02
- test method notes: IEDB peptide-MHC binding, purified MHC/competitive/radioactivity; bounds were set here for any values at or beyond the usual limits of such assays
- condition notes: source organism: Vaccinia virus WR
Please provide measured IC50 for the entries that follow.
Form entry: value (nM) — number only.

Observed IC50 on HLA-A*02:02, entry WLKDSAIMV , equals 191

Measured IC50 for this entry DVNSVQFSIL on HLA-A*02:02: 2270

Entry SINITPDDGL , tested on HLA-A*02:02, has a reported IC50 of 413

Reported IC50 (HLA-A*02:02) for entry HLTENNLYI is 114

IC50 for HLA-A*02:02 with input DQTHIKTIAV equals 2170

GIAIFNNRNL tested on HLA-A*02:02 gave IC50: 5.1

Record YIPPCQCTV ; system HLA-A*02:02; IC50 = 196

// sequence CIVAAVIIMA , assay HLA-A*02:02, IC50 value: 1130

IC50 on HLA-A*02:02 for LLEMKYALI is 354

Measured IC50 (HLA-A*02:02), entry YVGDTSMMVI : 408

Known value: HLA-A*02:02 IC50 of the sequence ITYCLVTHM equals 1280

Case DLLFNEKLKV , HLA-A*02:02, IC50 recorded as 357

Sample LQWDDNIPEL , system: HLA-A*02:02. Its IC50 is 180

Simply: EIARIENEM , HLA-A*02:02, IC50 = 335

Case VITYCLVTHM , HLA-A*02:02, IC50 recorded as 478

// returns IC50 for IMDKEQLLKI with HLA-A*02:02; value = 311

Per the reported HLA-A*02:02 data, KILSDENYL has IC50 of 196

Form field, IC50 with HLA-A*02:02, item NVSRVVECL : 133

Reading of IC50 for FVSTMPVET with HLA-A*02:02: 1220

HLA-A*02:02 IC50 of YLPEVISTIA is 11

Known value: HLA-A*02:02 IC50 of the sequence YVVIVENDNV equals 2340
